Entries annotated with measured TGI
- System: LOX IMVI melanoma
- assay-notes: NCI tumour cell line growth inhibition, 48 h
readout-kind: TGI

compound	observed
O=C(c1cccs1)N1CCc2ccccc2C1	> 100 µM
CN(C)CCCN=c1c2ccccc2n(O)c2ccccc12	> 100 µM
Cc1ccc2c(c1)CC1(Cc3ccccc3C1=O)C2=O (configuration not stated)	> 100 µM
CC(C)c1ccc(-c2cc(-c3cn[nH]c3-c3ccccn3)ccn2)cc1	> 25 µM
CCOC(C)O[C@H]1C(=O)OCC1(C)C (some centres not stated)	> 100 µM
CCOC(=O)CC(C)C1(C(=O)OCC)CCCCC1=O (configuration not stated)	> 100 µM
CN(Cc1ccccc1)C(=O)c1ccccc1C(=O)O	> 100 µM

All values here come from PubChem BioAssay (NCI).
